What activation at 1 µM was measured for each of the following?
- Assayed System: human GPR40 (Homo sapiens, UniProt O14842)
- Construct: expressed in transfected cells
- Sequence (O14842 whole entry): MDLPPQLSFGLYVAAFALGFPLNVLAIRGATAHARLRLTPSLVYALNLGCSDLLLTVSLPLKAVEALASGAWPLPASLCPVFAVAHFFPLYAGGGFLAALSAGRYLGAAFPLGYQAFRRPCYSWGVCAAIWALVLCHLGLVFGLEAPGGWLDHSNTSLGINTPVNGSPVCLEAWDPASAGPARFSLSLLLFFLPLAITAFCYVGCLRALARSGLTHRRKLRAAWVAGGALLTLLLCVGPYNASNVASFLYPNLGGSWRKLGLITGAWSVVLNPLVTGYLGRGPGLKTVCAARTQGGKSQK
- Protocol Notes: Evaluation of human GPR40 agonist activity with increase in intracellular Ca2+ concentration as an index (FLIPR Tetra)
- Type: cell-based
- Assay Conditions: test compound 1 μM; CHO(dhfr-) cells stably expressing human GPR40; 100% = activity of 1 μM WO2009/048527 Example 99.2, 0% = DMSO
Numeric answer only, unit % assumed.

Ask | // map COc1ccc(F)c(-c2ccc(OCc3cccc(C(CC(=O)O)C4CCC4)c3)cc2CC(C)(C)C)c1 (centres unmarked) [Example 42] to recorded activation at 1 µM (system: human GPR40 (Homo sapiens, UniProt O14842))
Reply | 104

Ask | // map CC(C)(C)Cc1cc(OCc2cccc(C(CC(=O)O)C3CC3)c2)cnc1-c1cccc(C(F)(F)F)c1 (centres unmarked) [Example 52] to recorded activation at 1 µM (system: human GPR40 (Homo sapiens, UniProt O14842))
Reply | 14

Ask | // map COc1ccc(F)c(-c2ccc(NCc3cccc(C(CC(=O)O)C4CC4)c3)cc2CC(C)(C)C)c1 (centres unmarked) [Example 8] to recorded activation at 1 µM (system: human GPR40 (Homo sapiens, UniProt O14842))
Reply | 98

Ask | // map COc1ccc(F)c(-c2ccc(OCc3cccc(OCC(=O)O)c3)nc2CC(C)(C)C)c1 [Example 1] to recorded activation at 1 µM (system: human GPR40 (Homo sapiens, UniProt O14842))
Reply | 98

Ask | // map COc1ccc(F)c(-c2ccc(OCc3cccc(C(CC(=O)O)C4CC4)c3)cc2CC2(C#N)CCCC2)c1 (centres unmarked) [Example 41] to recorded activation at 1 µM (system: human GPR40 (Homo sapiens, UniProt O14842))
Reply | 101

Ask | // map COc1ccc(-c2ncc(OCc3cccc(C(CC(=O)O)C4CC4)c3)cc2CC(C)(C)C)cc1 (centres unmarked) [Example 48] to recorded activation at 1 µM (system: human GPR40 (Homo sapiens, UniProt O14842))
Reply | -1

Ask | // map COc1ccc(F)c(-c2ccc(OCc3cccc(C(CC(=O)O)C(C)(F)F)c3)cc2CC(C)(C)C)c1 (centres unmarked) [Example 86] to recorded activation at 1 µM (system: human GPR40 (Homo sapiens, UniProt O14842))
Reply | 95

Ask | // map C=CC(CC(=O)O)c1cccc(COc2ccc(-c3cc(OC)ccc3F)c(CC(C)(C)C)c2)c1 (centres unmarked) [Example 79] to recorded activation at 1 µM (system: human GPR40 (Homo sapiens, UniProt O14842))
Reply | 134

====

- Assayed System: human GPR40 (Homo sapiens)
- Construct: expressed in transfected cells
- Protocol Notes: Evaluation of human GPR40 agonist activity with increase in intracellular Ca2+ concentration as an index (FLIPR Tetra)
- Type: cell-based
- Assay Conditions: test compound 1 μM; CHO(dhfr-) cells stably expressing human GPR40; 100% = activity of 1 μM WO2009/048527 Example 99.2, 0% = DMSO
Quantity Kind: activation at 1 µM

Ask | // map COc1ccc(F)c(-c2ccc(OCc3cccc(C(CC(=O)O)C4CC4)c3)cc2CC(C)(C)C#N)c1 (stereo not shown) to recorded activation at 1 µM (system: human GPR40 (Homo sapiens))
Reply | 105%

Ask | // map COc1ccc(F)c(-c2ccc(OCc3cccc(C(CC(=O)O)C4CC4)c3)cc2CC2(C#N)CCCCC2)c1 (stereo not shown) to recorded activation at 1 µM (system: human GPR40 (Homo sapiens))
Reply | 93%

Ask | // map CC(C)(C)Cc1cc(OCc2cccc(C(CC(=O)O)C3CC3)c2)cnc1-c1cc(OCC(F)(F)F)ccc1F (stereo not shown) to recorded activation at 1 µM (system: human GPR40 (Homo sapiens))
Reply | -8%

Ask | // map `COc1ccc(F)c(-c2ccc(OCc3cccc(CCC(=O)O)c3)cc2CC(C)(C)C)c1` to recorded activation at 1 µM (system: human GPR40 (Homo sapiens))
Reply | 108%

Ask | // map COc1ccc(F)c(-c2ccc(OCc3cccc(C(CC(=O)O)C4CC4)c3)nc2CC(C)(C)C)c1 (stereo not shown) to recorded activation at 1 µM (system: human GPR40 (Homo sapiens))
Reply | 110%

Ask | // map CCC(C)(C)Cc1cc(OCc2cccc(C(CC(=O)O)C3CC3)c2)ccc1-c1cc(OC)ccc1F (stereo not shown) to recorded activation at 1 µM (system: human GPR40 (Homo sapiens))
Reply | 96%

Ask | // map COc1ccc(F)c(-c2ccc(OCc3cc(C(CC(=O)O)C4CC4)ccn3)cc2CC(C)(C)C)c1 (stereo not shown) to recorded activation at 1 µM (system: human GPR40 (Homo sapiens))
Reply | 106%

Ask | // map CCC(C)(CC)Cc1cc(OCc2cccc(C(CC(=O)O)C3CC3)c2)ccc1-c1cc(OC)ccc1F (stereo not shown) to recorded activation at 1 µM (system: human GPR40 (Homo sapiens))
Reply | 108%

Ask | // map COc1ccc(F)c(-c2ccc(C(F)Cc3cccc(CCC(=O)O)c3)nc2CC(C)(C)C)c1 (stereo not shown) to recorded activation at 1 µM (system: human GPR40 (Homo sapiens))
Reply | 102%

Ask | // map CC(C)(C)Cc1cc(OCc2cccc(C(CC(=O)O)C3CC3)c2)cnc1-c1cccc(S(=O)(=O)N2CCOCC2)c1 (stereo not shown) to recorded activation at 1 µM (system: human GPR40 (Homo sapiens))
Reply | 8%

====

- Assayed System: human GPR40 (Homo sapiens)
- Construct: expressed in transfected cells
- Protocol Notes: Evaluation of human GPR40 agonist activity with increase in intracellular Ca2+ concentration as an index (FLIPR Tetra)
- Format: cell-based
- Assay Conditions: test compound 1 μM; CHO(dhfr-) cells stably expressing human GPR40; 100% = activity of 1 μM WO2009/048527 Example 99.2, 0% = DMSO
Quantity Kind: activation at 1 µM (%)
Numeric answer only, unit % assumed.

Ask | Form field: reported activation at 1 µM of COc1ccccc1-c1ncc(OCc2cccc(C(CC(=O)O)C3CC3)c2)cc1CC(C)(C)C (stereo not drawn)
Reply | 9

Ask | Form field: reported activation at 1 µM of CCOC(=O)CC(CC(=O)O)c1cccc(COc2ccc(-c3cc(OC)ccc3F)c(CC(C)(C)C)c2)c1 (stereo not drawn)
Reply | 134

Ask | Form field: reported activation at 1 µM of COc1ccc(F)c(-c2ccc(OCc3cccc(C(CC(=O)O)C4CC4)c3)cc2C(F)CC(C)(C)C)c1 (stereo not drawn)
Reply | 110

Ask | Form field: reported activation at 1 µM of COc1ccc(F)c(-c2ccc(OCc3cccc(C(CC(=O)O)C4CC4)c3)cc2OCC(C)(C)C)c1 (stereo not drawn)
Reply | 111

Ask | Form field: reported activation at 1 µM of COc1ccc(F)c(-c2ccc(OCc3cccc(C(CC(=O)O)C4CC4)c3)cc2CCCC(C)(C)C)c1 (stereo not drawn)
Reply | 102

Ask | Form field: reported activation at 1 µM of COc1ccc(F)c(-c2ccc(OCc3cccc(C(CC(N)=O)CC(=O)O)c3)cc2CC(C)(C)C)c1 (stereo not drawn)
Reply | 34

Ask | Form field: reported activation at 1 µM of `COc1ccc(F)c(-c2ccc(OCc3cccc(OCC(=O)O)c3)cc2CC(C)(C)C)c1`
Reply | 108

Ask | Form field: reported activation at 1 µM of COc1ccc(F)c(-c2ccc(OCc3cccc(C(CC(=O)O)C4CC4)c3)cc2CCC(C)(C)OC)c1 (stereo not drawn)
Reply | 113

Ask | Form field: reported activation at 1 µM of COc1ccc(F)c(-c2ccc(OCc3cc(C(CC(=O)O)C4CC4)ccn3)nc2CC(C)(C)C)c1 (stereo not drawn)
Reply | 108

Ask | Form field: reported activation at 1 µM of COc1ccc(F)c(-c2ccc(OCc3cccc(C(CC(=O)O)C(C)C)c3)cc2CC(C)(C)C)c1 (stereo not drawn)
Reply | 118

Ask | Form field: reported activation at 1 µM of COc1ccc(F)c(-c2ccc(N(Cc3cccc(C(CC(=O)O)C4CC4)c3)CC(F)(F)F)cc2CC(C)(C)C)c1 (stereo not drawn)
Reply | 106

Ask | Form field: reported activation at 1 µM of COc1ccc(F)c(-c2ccc(OCc3cccc(C(CC(=O)O)C(F)(F)C(F)(F)F)c3)cc2CC(C)(C)C)c1 (stereo not drawn)
Reply | 96

Ask | Form field: reported activation at 1 µM of CC(C)(C)Cc1cc(OCc2cccc(C(CC(=O)O)C3CC3)c2)cnc1-c1cccc(C(=O)O)c1 (stereo not drawn)
Reply | 0

Ask | Form field: reported activation at 1 µM of CCC(CC)(CC)Cc1cc(OCc2cccc(C(CC(=O)O)C3CC3)c2)ccc1-c1cc(OC)ccc1F (stereo not drawn)
Reply | 111

Ask | Form field: reported activation at 1 µM of COc1ccc(F)c(-c2ccc(OCc3cccc(C(CC(=O)O)C4CC4)c3)cc2C2CC(C)(C)OC(C)(C)C2)c1 (stereo not drawn)
Reply | 140

Ask | Form field: reported activation at 1 µM of CC(C)(C)Cc1cc(OCc2cccc(C(CC(=O)O)C3CC3)c2)cnc1-c1cc(C#N)ccc1F (stereo not drawn)
Reply | 56

Ask | Form field: reported activation at 1 µM of COc1ccc(F)c(-c2ccc(OCc3cccc(C(CC(=O)O)C4CC4)c3)cc2-c2ccc(C#N)s2)c1 (stereo not drawn)
Reply | 95

Ask | Form field: reported activation at 1 µM of CC#CC(CC(=O)O)c1cccc(COc2ccc(-c3cc(OC)ccc3F)c(CC(C)(C)C)c2)c1 (stereo not drawn)
Reply | 95

Ask | Form field: reported activation at 1 µM of Cc1cncc(-c2ncc(OCc3cccc(C(CC(=O)O)C4CC4)c3)cc2CC(C)(C)C)c1 (stereo not drawn)
Reply | 21

Ask | Form field: reported activation at 1 µM of COc1ccc(-c2ncc(OCc3cccc(C(CC(=O)O)C4CC4)c3)cc2CC(C)(C)C)cc1OC (stereo not drawn)
Reply | 3

Ask | Form field: reported activation at 1 µM of COc1ccc(F)c(-c2ccc(OCc3cccc(C(CC(=O)O)C4CC4)c3)cc2C(O)C(C)(C)C)c1 (stereo not drawn)
Reply | 107

Ask | Form field: reported activation at 1 µM of COc1ccc(OC)c(-c2ncc(OCc3cccc(C(CC(=O)O)C4CC4)c3)cc2CC(C)(C)C)c1 (stereo not drawn)
Reply | 99

Ask | Form field: reported activation at 1 µM of COc1ccc(F)c(-c2ccc(SCc3cccc(C(CC(=O)O)C4CC4)c3)cc2CC(C)(C)C)c1 (stereo not drawn)
Reply | 113

Ask | Form field: reported activation at 1 µM of COc1cncc(-c2ncc(OCc3cccc(C(CC(=O)O)C4CC4)c3)cc2CC(C)(C)C)c1 (stereo not drawn)
Reply | 57

Ask | Form field: reported activation at 1 µM of CCC(C)(C)C(OCCOC)c1cc(OCc2cccc(C(CC(=O)O)C3CC3)c2)ccc1-c1cc(OC)ccc1F (stereo not drawn)
Reply | 94

Ask | Form field: reported activation at 1 µM of CC(C)(C)Cc1cc(OCc2cccc(C(CC(=O)O)C3CC3)c2)cnc1-c1cccc(NS(C)(=O)=O)c1 (stereo not drawn)
Reply | 4

Ask | Form field: reported activation at 1 µM of CC(C)(C)Cc1cc(OCc2cccc(C(CC(=O)O)C3CC3)c2)cnc1-c1cc(OC2CCCCO2)ccc1F (stereo not drawn)
Reply | 3

Ask | Form field: reported activation at 1 µM of CCC(C)(C)C(O)c1cc(OCc2cccc(C(CC(=O)O)C3CC3)c2)ccc1-c1cc(OC)ccc1F (stereo not drawn)
Reply | 129

Ask | Form field: reported activation at 1 µM of CCCC(C)(C)Cc1cc(OCc2cccc(C(CC(=O)O)C3CC3)c2)ccc1-c1cc(OC)ccc1F (stereo not drawn)
Reply | 116

Ask | Form field: reported activation at 1 µM of CCC1(Cc2cc(OCc3cccc(C(CC(=O)O)C4CC4)c3)ccc2-c2cc(OC)ccc2F)CCCC1 (stereo not drawn)
Reply | 105
